I'd appreciate it if you could supply melting point values for the items below.

In the examples that follow, each entry is paired with its recorded melting point.
| COMPOUND | melting point |
| --- | --- |
| Cc1cc2c(cc1-c1csc(C=O)c1)C(C)(C)CCC2(C)C | 144 to 146 °C |
| C=C(C)COc1ccc(C(=O)C=Cc2c(Cl)cccc2Cl)c2oc3ccccc3c(=O)c12 | 135 to 137 °C |
| Cc1cccnc1-c1cccc(OC2SCC(O)C(O)C2O)c1 (configuration not stated) | 97 to 109 °C |
| Brc1cccc2c(-c3ccccc3)coc12 | 69.5 to 71.5 °C |
| CC(NC(=O)OC(C)(C)C)C(=O)NC1CCN(c2c(F)cc3c(=O)c(C(=O)O)cn(C4CC4)c3c2F)C1 (configuration not stated) | 185 to 187 °C |

Each compound below has a recorded value; state its melting point.
1. Cc1cc([N+](=O)[O-])cc(C=O)c1O
2. CC(C(=O)O)c1c(C(=O)c2ccccc2)[nH]c2cc(Cl)ccc12 (configuration not stated)
3. O=C(O)CCCC(=O)c1cn(-c2cccnc2)c2ccccc12

1. 132 to 133 °C
2. 193 to 196 °C
3. 177 to 178 °C

Hey, can you go through the list below and give me melting point for every item?
1. CCN(C)c1cc(C)nc(Oc2c(C)cc(C)cc2C)c1C
2. CCOC(=O)c1ccc(NC(=O)C=Cc2ccc(OC)cc2)cc1
3. CC(C)(C)OC(=O)Nc1ccc(N2CCNCC2)cc1

["173 to 174 °C", "163 to 166 °C", "155 to 157 °C"]

The following compounds each have a reported value; give each one's melting point.
1. Cc1cc(Oc2ccc(N)cc2)c2ncccc2c1
2. CON1CCC2(CC1)C(O)=C(c1cc(C)c(C)cc1Cl)C(=O)N2C
3. CCCCCCCCN(CCCCCCCC)C(=O)c1cc(C(C)(C)C)c(OC(=O)c2cc(C(C)(C)C)c(O)c(C(C)(C)C)c2)c(C(C)(C)C)c1
4. COc1ccc2c(c1)C(=O)NCC2
5. Cc1cc(-c2cn(-c3cccc(OCCn4ccnc4)c3)c3ncnc(N)c23)cc(C)c1O
6. CC(C)(C)OC(=O)NC(C)(C(=O)O)c1nc2ccccc2s1 (configuration not stated)

1: 184 to 185 °C; 2: 191 to 192 °C; 3: 145 to 146 °C; 4: 90 to 93 °C; 5: 100 °C; 6: 148 to 150 °C

Batch request: melting point for each of the following compounds.
1. Cc1csc(CC(=O)O)c1
2. Cc1[nH]c2c(Cl)cc(Nc3cnccc3N)cc2c1C
3. CCOC(=O)CNC(=O)/C=C/S(=O)(=O)c1ccccc1
4. COc1ccc(CN(CCN(C)CCCCCCNC(=O)NCCCOc2cccc(CN3CCCCC3)c2)c2ccccn2)cc1
5. CC(C)c1cccc(C(C)C)c1NC(=O)CC(=O)N(Cc1ccccc1)C(C)C
6. CNC(=O)C1CN(CC(=O)Nc2c(Cl)cc(Cl)cc2Cl)CCN1 (configuration not stated)
7. O=S(=O)(Cl)c1ccc(Nc2nccc(Cl)n2)cc1

1: 49 °C; 2: 108 to 110 °C; 3: 156 to 157 °C; 4: 75 °C; 5: 102 °C; 6: 169 °C; 7: 192 to 195 °C
